# study system: Calcium/calmodulin-dependent protein kinase type IV (Homo sapiens) (UniProt Q16566);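 further: each value is the mean of the measured CAMK4 inhibition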
# Sequence (Q16566 whole entry): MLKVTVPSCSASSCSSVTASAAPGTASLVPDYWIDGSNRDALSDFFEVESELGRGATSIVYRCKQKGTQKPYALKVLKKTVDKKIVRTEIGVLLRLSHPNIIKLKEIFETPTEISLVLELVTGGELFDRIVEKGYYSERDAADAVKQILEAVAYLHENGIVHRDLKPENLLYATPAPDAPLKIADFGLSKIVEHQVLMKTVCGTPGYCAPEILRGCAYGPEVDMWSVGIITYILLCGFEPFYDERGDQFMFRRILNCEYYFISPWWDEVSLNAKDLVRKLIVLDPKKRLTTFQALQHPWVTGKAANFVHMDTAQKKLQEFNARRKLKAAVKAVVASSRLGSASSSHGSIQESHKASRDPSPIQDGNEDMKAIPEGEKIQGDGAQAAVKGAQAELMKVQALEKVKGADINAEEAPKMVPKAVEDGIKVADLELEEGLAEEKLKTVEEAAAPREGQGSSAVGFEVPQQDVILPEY
# cond: at 1 µM
The compounds listed here are annotated with their inhibition.
observation type: inhibition

{"compound structure string": "NS(=O)(=O)c1cccc(N/C=C2\\C(=O)Nc3ccccc32)c1", "study system": "Calcium/calmodulin-dependent protein kinase type IV (Homo sapiens) (UniProt Q16566)", "result": "2.86%"}
{"compound structure string": "COc1cc(N2CCN(C(C)C)CC2)ccc1Nc1nc(Nc2cccc(F)c2C(=O)O)c2cc[nH]c2n1", "study system": "Calcium/calmodulin-dependent protein kinase type IV (Homo sapiens) (UniProt Q16566)", "result": "-1.74%"}
{"compound structure string": "CS(=O)(=O)Nc1ccc(-c2ccc3c(NC(=O)C4CC4)n[nH]c3c2)cc1", "study system": "Calcium/calmodulin-dependent protein kinase type IV (Homo sapiens) (UniProt Q16566)", "result": "-0.43%"}
{"compound structure string": "CS(=O)(=O)Nc1ccc(-c2cc(-c3ccccc3)cc(C(N)=O)c2N)cc1", "study system": "Calcium/calmodulin-dependent protein kinase type IV (Homo sapiens) (UniProt Q16566)", "result": "-0.72%"}
{"compound structure string": "CN(C)CCNC(=O)Nc1ccc(N(C)c2ccnc(Nc3ccc(CS(C)(=O)=O)cc3)n2)cc1", "study system": "Calcium/calmodulin-dependent protein kinase type IV (Homo sapiens) (UniProt Q16566)", "result": "-0.68%"}

---

# study system: Serine/threonine-protein kinase pim-1 (Homo sapiens) (UniProt P11309);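 further: reported value is the mean inhibition of PIM1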
# Sequence (P11309 whole entry, looked up): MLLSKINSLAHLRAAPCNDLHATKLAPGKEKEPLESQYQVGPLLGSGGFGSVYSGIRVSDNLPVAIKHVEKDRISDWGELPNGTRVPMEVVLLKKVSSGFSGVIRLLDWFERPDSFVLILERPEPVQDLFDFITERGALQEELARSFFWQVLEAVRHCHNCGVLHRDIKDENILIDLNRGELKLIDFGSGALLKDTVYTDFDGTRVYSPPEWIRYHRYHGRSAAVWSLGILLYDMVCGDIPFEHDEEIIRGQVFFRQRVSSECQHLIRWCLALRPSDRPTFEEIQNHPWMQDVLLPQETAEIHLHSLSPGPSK
# cond: at 0.1 µM
The compounds listed here are annotated with their inhibition.

{"compound structure string": "Cc1ccc(-c2cc3c(NC(=O)C4CC4)ncnc3o2)cc1", "inhibition / %": 0.73}
{"compound structure string": "Cc1cc(O)cc(C)c1/C=C/c1cncc(C(N)=O)c1", "inhibition / %": 0.11}
{"compound structure string": "CCS(=O)(=O)c1ccc(OC)c(Nc2ncc(-c3cccc(C(C)=O)c3)o2)c1", "inhibition / %": 0.82}
{"compound structure string": "Cc1c2ccc(N(C)c3ccnc(Nc4cccc(S(N)(=O)=O)c4)n3)cc2nn1C", "inhibition / %": 0.43}
{"compound structure string": "NS(=O)(=O)c1cccc(N/C=C2\\C(=O)Nc3ccccc32)c1", "inhibition / %": 0.75}
{"compound structure string": "COC(=O)Nc1nc2cc(Oc3ccc(NC(=O)Nc4ccccc4)cc3)ccc2[nH]1", "inhibition / %": -0.24}
{"compound structure string": "CCOc1ccc2c(-c3ccnc(Nc4cc(OC)cc(C(F)(F)F)c4)n3)cnn2n1", "inhibition / %": 0.51}
{"compound structure string": "CC1(C)CC(n2cnc(-c3ccc(F)cc3)c2-c2ccnc(N)n2)CC(C)(C)N1", "inhibition / %": 0.93}
{"compound structure string": "NS(=O)(=O)c1ccc(N/N=C2\\C(=O)Nc3cccc(CCc4ccncc4)c32)cc1", "inhibition / %": 0.54}
{"compound structure string": "N#Cc1ccc2c(-c3ccnc(NC4CC4)n3)c(-c3ccc(F)cc3)nn2c1", "inhibition / %": -0.01}
{"compound structure string": "CS(=O)(=O)CCNCc1ccc(-c2ccc3ncnc(Nc4ccc(OCc5cccc(C(F)(F)F)c5)cc4)c3c2)o1", "inhibition / %": 1.96}
{"compound structure string": "Cc1nnc(-c2cccc(-c3ccc(C(=O)NCC4CC4)cc3)c2)o1", "inhibition / %": -0.37}
{"compound structure string": "CS(=O)(=O)CCNCc1ccc(-c2ccc3ncnc(Nc4ccc(OCc5ccccc5)cc4)c3c2)o1", "inhibition / %": 1.47}
{"compound structure string": "COc1ccc(-c2nn3ncccc3c2-c2ccnc(Nc3ccc(F)c(F)c3)n2)cc1", "inhibition / %": 0.43}

---

The compounds listed here are annotated with their inhibition.
# study system: Death-associated protein kinase 1 (Homo sapiens);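 further: each value is a mean inhibition figure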
# cond: at 1 µM
observation type: inhibition (%)

{"compound structure string": "NS(=O)(=O)c1ccc(N/N=C2\\C(=O)Nc3ccc(C(=O)NCc4ccncc4)cc32)cc1", "recorded number": 4.92}
{"compound structure string": "CCn1c(-c2nonc2N)nc2cncc(C(=O)NCCNC)c21", "recorded number": 0.19}
{"compound structure string": "CS(=O)(=O)Nc1ccc(-c2cc(-c3ccccc3)cc(C(N)=O)c2N)cc1", "recorded number": 1.38}
{"compound structure string": "CNC(=O)c1cncc(/C=C/c2ccccc2C)c1", "recorded number": 7.67}

---

# study system: Dual specificity tyrosine-phosphorylation-regulated kinase 2 (Homo sapiens) (UniProt Q92630);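 further: reported values are means of DYRK2 inhibition from screening the GSK PKIS collection at 1 µM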
# Sequence (Q92630 whole entry): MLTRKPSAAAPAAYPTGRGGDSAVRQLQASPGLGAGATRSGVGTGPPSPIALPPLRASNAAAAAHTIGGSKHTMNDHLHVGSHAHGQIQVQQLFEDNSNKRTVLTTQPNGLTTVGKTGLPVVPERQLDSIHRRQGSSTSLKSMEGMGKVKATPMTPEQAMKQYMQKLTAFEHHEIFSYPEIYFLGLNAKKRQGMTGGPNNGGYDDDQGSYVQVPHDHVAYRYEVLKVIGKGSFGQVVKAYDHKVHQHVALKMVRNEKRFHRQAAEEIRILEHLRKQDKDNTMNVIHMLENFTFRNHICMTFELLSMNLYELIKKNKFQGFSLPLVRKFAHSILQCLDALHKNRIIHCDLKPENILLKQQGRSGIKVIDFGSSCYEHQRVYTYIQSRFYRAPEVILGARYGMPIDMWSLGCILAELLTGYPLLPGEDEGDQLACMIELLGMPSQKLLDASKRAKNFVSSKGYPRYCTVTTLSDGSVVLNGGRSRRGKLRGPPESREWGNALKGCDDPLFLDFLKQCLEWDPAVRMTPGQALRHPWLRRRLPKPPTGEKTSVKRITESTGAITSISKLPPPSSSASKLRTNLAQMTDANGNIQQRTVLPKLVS
# cond: at 1 µM
The molecules listed here are annotated with their inhibition.
observation type: inhibition (%)

{"molecule": "Cc1cc(O)cc(C)c1/C=C/c1cncc(C(N)=O)c1", "observation type": "inhibition", "display unit": "%", "recorded number": 3.99}
{"molecule": "COc1cc(Nc2ncc(-c3ccccc3)o2)cc(OC)c1", "observation type": "inhibition", "display unit": "%", "recorded number": 1.69}
{"molecule": "COc1cc(N2CCN(C(C)C)CC2)ccc1Nc1nc(Nc2cccc(F)c2C(=O)O)c2cc[nH]c2n1", "observation type": "inhibition", "display unit": "%", "recorded number": 4.2}
{"molecule": "COc1ccc(-c2nn3ncccc3c2-c2ccnc(Nc3ccc(F)c(F)c3)n2)cc1", "observation type": "inhibition", "display unit": "%", "recorded number": 3.6}
{"molecule": "CC1=C(C(=O)Nc2ccc3[nH]nc(C)c3c2)C(c2ccc(C(F)(F)F)cc2)CC(=O)N1 (stereo not given)", "observation type": "inhibition", "display unit": "%", "recorded number": 3.97}

---

# study system: Proto-oncogene tyrosine-protein kinase Src (Homo sapiens);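 further: each value is an averaged percent inhibition of SRC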
# cond: at 1 µM
The compounds listed here are annotated with their inhibition.

{"compound structure string": "COc1cc(N2CCN(C(C)C)CC2)ccc1Nc1nc(Nc2cccc(F)c2C(=O)O)c2cc[nH]c2n1", "inhibition [%]": 8.5}
{"compound structure string": "CS(=O)(=O)CCNCc1ccc(-c2ccc3ncnc(Nc4ccc(OCc5cccc(C(F)(F)F)c5)cc4)c3c2)o1", "inhibition [%]": 15.8}
{"compound structure string": "COC(=O)Nc1nc2cc(Oc3ccc(NC(=O)Nc4ccccc4)cc3)ccc2[nH]1", "inhibition [%]": 7.76}
{"compound structure string": "COc1c(C(N)=O)cc(-c2ccc(Cl)cc2)cc1-c1ccc(S(N)(=O)=O)cc1", "inhibition [%]": 14.6}
{"compound structure string": "COc1cc(N2CCN(C(C)C)CC2)ccc1Nc1nc(Nc2cccc3ncccc23)c2cc[nH]c2n1", "inhibition [%]": 0.42}

---

The molecules listed here are annotated with their inhibition.
# study system: Insulin receptor-related protein (Homo sapiens);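 further: mean percent inhibition of IRR, reported within the GSK PKIS screening panel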
# cond: at 0.1 µM

{"molecule": "CCn1c(-c2nonc2N)nc2cncc(C(=O)NCCNC)c21", "display unit": "%", "inhibition": 3.26}
{"molecule": "O=C(O[C@H]1CN[C@H](C#Cc2cc3ncnc(Nc4ccc5c(cnn5Cc5ccccc5)c4)c3s2)C1)N1CCOCC1", "display unit": "%", "inhibition": -1.64}
{"molecule": "NS(=O)(=O)c1ccc(N/N=C2\\C(=O)Nc3ccc(C(=O)NCc4ccncc4)cc32)cc1", "display unit": "%", "inhibition": 2.61}
{"molecule": "Cc1nnc(-c2cccc(-c3ccc(C(=O)NCC4CC4)cc3)c2)o1", "display unit": "%", "inhibition": 4.48}
{"molecule": "COc1cc(N2CCN(C(C)C)CC2)ccc1Nc1nc(Nc2cccc(F)c2C(=O)O)c2cc[nH]c2n1", "display unit": "%", "inhibition": 22.1}
{"molecule": "CC1(C)CC(n2cnc(-c3ccc(F)cc3)c2-c2ccnc(N)n2)CC(C)(C)N1", "display unit": "%", "inhibition": -0.08}
{"molecule": "OCCCNc1nccc(-c2c(-c3ccc(F)cc3)nn3cc(C(F)(F)F)ccc23)n1", "display unit": "%", "inhibition": 3.08}
{"molecule": "CN(C)CCNC(=O)Nc1ccc(N(C)c2ccnc(Nc3ccc(CS(C)(=O)=O)cc3)n2)cc1", "display unit": "%", "inhibition": 2.48}
{"molecule": "Cc1cc(O)cc(C)c1/C=C/c1cncc(C(=O)OC(C)(C)C)c1", "display unit": "%", "inhibition": 2.54}
{"molecule": "N#Cc1cccc(Nc2ncc(-c3ccccc3)o2)c1", "display unit": "%", "inhibition": 0.61}
{"molecule": "COc1cc2c(cc1Nc1nc(Nc3cccc(F)c3C(N)=O)c3cc[nH]c3n1)N(C(=O)CN1CCN(C(C)C)CC1)CC2", "display unit": "%", "inhibition": 6.85}
{"molecule": "CC1=C(C(=O)Nc2ccc3[nH]ncc3c2)C(c2ccc(F)cc2)N=C(c2ccc(C(F)(F)F)nc2)N1 (centres undefined)", "display unit": "%", "inhibition": 1.92}
{"molecule": "Cc1ccc(-c2cc3c(NC(=O)C4CC4)ncnc3o2)cc1", "display unit": "%", "inhibition": 5.59}
{"molecule": "COc1cc(N2CCN(C(C)C)CC2)ccc1Nc1nc(Nc2cccc3ncccc23)c2cc[nH]c2n1", "display unit": "%", "inhibition": -1.05}
{"molecule": "COc1cccc(-n2ncc3c(N/N=C/c4ccc(C(=O)NCCN(C)C)cc4)ncnc32)c1", "display unit": "%", "inhibition": 5.09}
{"molecule": "COc1cc(Nc2ncc(-c3ccccc3)o2)cc(OC)c1", "display unit": "%", "inhibition": 2.92}
{"molecule": "NS(=O)(=O)c1cccc(N/C=C2\\C(=O)Nc3ccccc32)c1", "display unit": "%", "inhibition": 2.22}
{"molecule": "CS(=O)(=O)CCNCc1ccc(-c2ccc3ncnc(Nc4ccc(OCc5ccccc5)cc4)c3c2)o1", "display unit": "%", "inhibition": 1.91}
{"molecule": "Cc1c2ccc(N(C)c3ccnc(Nc4cccc(S(N)(=O)=O)c4)n3)cc2nn1C", "display unit": "%", "inhibition": 2.78}
{"molecule": "CCS(=O)(=O)c1ccc(OC)c(Nc2ncc(-c3cccc(F)c3)o2)c1", "display unit": "%", "inhibition": 2.84}
{"molecule": "CCCNc1cccc(-n2ncc3c(N/N=C/c4ccncc4)ncnc32)c1", "display unit": "%", "inhibition": 0.19}
{"molecule": "CC1=C(C(=O)Nc2ccc3[nH]nc(C)c3c2)C(c2ccc(C(F)(F)F)cc2)CC(=O)N1 (centres undefined)", "display unit": "%", "inhibition": 2.64}
{"molecule": "O=C(Nc1n[nH]c2nnc(-c3cccnc3)cc12)C1CC1", "display unit": "%", "inhibition": -0.87}
{"molecule": "CS(=O)(=O)Nc1ccc(-c2cc(-c3ccccc3)cc(C(N)=O)c2N)cc1", "display unit": "%", "inhibition": -1.45}
{"molecule": "COc1ccc(Nc2ncc(-c3ccccc3)o2)cc1OC", "display unit": "%", "inhibition": -0.23}
{"molecule": "O=C(O[C@H]1CN[C@H](C#Cc2cc3ncnc(Nc4ccc5c(ccn5Cc5cc(F)ccc5F)c4)c3s2)C1)N1CCOCC1", "display unit": "%", "inhibition": 1.67}
{"molecule": "Fc1cccc(COc2ccc(Nc3ncncc3C#Cc3ccccc3)cc2Cl)c1", "display unit": "%", "inhibition": 0.84}
{"molecule": "Cn1c(-c2nonc2N)nc2cnccc21", "display unit": "%", "inhibition": 2.16}
{"molecule": "O=C1Nc2ccccc2/C1=C1\\CCc2cc(O)ccc21", "display unit": "%", "inhibition": 3.81}
{"molecule": "COc1ccccc1-c1cc(/C=C2\\C(=O)Nc3ncc(Br)cc32)cc(Br)c1O", "display unit": "%", "inhibition": 2.46}
{"molecule": "c1ccc(-c2n[nH]cc2-c2ccnc(-c3ccc(OCCn4ccnc4)cc3)c2)nc1", "display unit": "%", "inhibition": -0.75}
{"molecule": "Fc1ccc(Nc2nccc(-c3c(-c4ccc(C(F)(F)F)cc4)nn4ncccc34)n2)cc1F", "display unit": "%", "inhibition": 3.45}
{"molecule": "COc1ccc2ncn(-c3cc(O[C@H](C)c4ccccc4C(F)(F)F)c(C(N)=O)s3)c2c1", "display unit": "%", "inhibition": -2.16}
{"molecule": "NS(=O)(=O)c1ccc(N/N=C2\\C(=O)Nc3cccc(CCc4ccncc4)c32)cc1", "display unit": "%", "inhibition": -0.57}
